Where these numbers come from: patent US20240182495A1

test: LM Clint (microsomal stability), mouse; assay type: in vitro ADME; details: mouse, microsomes
recordedMetric: microsomal CLint (µL/min/mg)

> print(dat)
                             compoundsmiles  result
1  CCc1nc2ccc(C)cn2c1C(=O)NCc1ccc(-c2cn3c(n2)CN(S(=O)(=O)C(F)(F)F)CC3)cc1    13.2

* * *

experiment: physchem; details: fassif
recordedMetric: solubility

> print(dat)
                             compoundsmiles  recordedmetric   result
1  CCc1nc2ncc(Cl)cn2c1C(=O)NCc1ccc(-c2nc3n(n2)CCN(S(=O)(=O)C(F)(F)F)C3)cc1      solubility   < 5 µM
2  CCc1nc2ccc(C)cn2c1C(=O)NCc1ccc(-c2cn3c(n2)CN(S(=O)(=O)C(F)(F)F)CC3)cc1      solubility   5.6 µM
3  CCc1nc2ncc(C)cn2c1C(=O)NCc1ccc(-c2cc3n(n2)CCN(S(=O)(=O)C(F)(F)F)C3)c(F)c1      solubility  24.5 µM

* * *

pIC50: −log10 of the molar value.
The listing below reports pIC50 for compounds tested on 2C9 (Homo sapiens, UniProt P11712).
Sequence (P11712 whole entry): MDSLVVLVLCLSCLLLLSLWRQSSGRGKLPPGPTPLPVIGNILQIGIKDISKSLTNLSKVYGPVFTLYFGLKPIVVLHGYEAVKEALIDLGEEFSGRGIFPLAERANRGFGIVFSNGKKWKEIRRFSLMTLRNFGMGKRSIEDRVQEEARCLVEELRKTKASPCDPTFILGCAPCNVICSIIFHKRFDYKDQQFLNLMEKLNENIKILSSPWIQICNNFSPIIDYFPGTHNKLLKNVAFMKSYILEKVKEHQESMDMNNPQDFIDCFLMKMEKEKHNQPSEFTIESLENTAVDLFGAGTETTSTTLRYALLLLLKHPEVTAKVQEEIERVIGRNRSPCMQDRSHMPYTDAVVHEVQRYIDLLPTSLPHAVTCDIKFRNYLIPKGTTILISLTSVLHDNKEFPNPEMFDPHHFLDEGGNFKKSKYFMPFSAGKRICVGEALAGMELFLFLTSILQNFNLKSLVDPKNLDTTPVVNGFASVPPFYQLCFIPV
recordedMetric: pIC50

> print(dat)
                             compoundsmiles  result
1  CCc1nc2ccc(C)cn2c1C(=O)NCc1ccc(-c2cn3c(n2)CN(S(=O)(=O)C(F)(F)F)CC3)cc1    4.75
2  CCc1nc2ncc(C)cn2c1C(=O)NCc1ccc(-c2nc3n(n2)CCN(S(=O)(=O)C(F)(F)F)C3)c(F)c1    4.81

* * *

experiment: Chemical stability testing in DMSO, ACN/H2O, ACN/0.1N HCl, ACN/0.1N NaOH (% by LCMS); assay type: physicochemical; details: 72 h, 30 µM, pH 1.6
recordedMetric: chemical stability (% by LCMS) (%)

> print(dat)
                             compoundsmiles  result
1  CCc1nc2ccc(Cl)cn2c1C(=O)NCc1cnc(-c2nc3n(n2)CCN(S(=O)(=O)C(F)(F)F)C3)c(F)c1   97.49
2  CCc1nc2ncc(Cl)cn2c1C(=O)NCc1ccc(-c2nc3n(n2)CCN(S(=O)(=O)C(F)(F)F)C3)cc1   90.52
3  CCc1nc2cc(OC)c(Cl)cn2c1C(=O)NCc1ccc(-c2nc3n(n2)CCN(S(=O)(=O)C(F)(F)F)C3)c(F)c1     100
4  CCc1nc2cc(N)c(Cl)cn2c1C(=O)NCc1ccc(-c2nc3n(n2)CCN(S(=O)(=O)C(F)(F)F)C3)c(F)c1     100
5  CCc1nc2ncc(C)cn2c1C(=O)NCc1ccc(-c2nc3n(n2)CCN(S(=O)(=O)C(F)(F)F)C3)c(F)c1     100
6  CCc1nc2nc(N)c(Cl)cn2c1C(=O)NCc1ccc(-c2nc3n(n2)CCN(S(=O)(=O)C(F)(F)F)C3)c(F)c1   97.06

* * *

test system: CYPs (all isoforms, or the isoforms not named for that compound); assay: CYP cocktail inhibition, all / other isoforms; type: in vitro ADME; details: human, read-out: CYPS IC50 (all / others)
recordedMetric: IC50

> print(dat)
                             compoundsmiles   result
1  CCc1nc2ccc(C)cn2c1C(=O)NCc1ccc(-c2cn3c(n2)CN(S(=O)(=O)C(F)(F)F)CC3)cc1  > 20 µM
2  CCc1nc2ncc(C)cn2c1C(=O)NCc1ccc(-c2nc3n(n2)CCN(S(=O)(=O)C(F)(F)F)C3)c(F)c1  > 20 µM
